systemTested: Serine/threonine-protein kinase Chk1 (Homo sapiens) (UniProt O14757)
Sequence (whole entry): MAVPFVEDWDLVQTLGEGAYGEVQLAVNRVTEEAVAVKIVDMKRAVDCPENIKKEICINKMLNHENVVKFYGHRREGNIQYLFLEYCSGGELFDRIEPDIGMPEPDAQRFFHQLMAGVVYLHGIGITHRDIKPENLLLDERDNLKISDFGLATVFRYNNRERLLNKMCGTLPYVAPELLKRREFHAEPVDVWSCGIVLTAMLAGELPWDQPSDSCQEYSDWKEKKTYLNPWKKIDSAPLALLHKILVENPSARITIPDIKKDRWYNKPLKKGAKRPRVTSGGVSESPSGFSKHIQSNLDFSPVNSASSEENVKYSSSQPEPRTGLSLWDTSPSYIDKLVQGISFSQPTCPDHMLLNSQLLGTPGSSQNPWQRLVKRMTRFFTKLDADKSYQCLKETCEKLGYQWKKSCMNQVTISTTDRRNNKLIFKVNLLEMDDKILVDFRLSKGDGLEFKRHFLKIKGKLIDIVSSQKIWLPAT
methodNotes: Inhibition of full length human C-terminal 6His-tagged CHK1 expressed in baculovirus/insect expression system assessed as reduction in NADH oxidation at 20 uM using Syntide2 as substrate by pyruvate kinase/lactate dehydrogenase coupled assay
I'd be grateful if you could share measured inhibition for these entries.
Kindly provide the numeric value in % only, without the unit symbol.

IN: State its inhibition for this compound: "O=C(Nc1cccc(O)c1)c1ccc2c(-c3nc4ccccc4[nH]3)n[nH]c2c1"
OUT: 57.7

IN: State its inhibition for this compound: "O=C(NCCN1CCOCC1)c1ccc2c(-c3nc4ccccc4[nH]3)n[nH]c2c1"
OUT: 21.7

IN: State its inhibition for this compound: "Cc1cc(NC(=O)c2ccc3c(-c4nc5ccccc5[nH]4)n[nH]c3c2)n[nH]1"
OUT: 38.6

IN: State its inhibition for this compound: "O=C(c1ccc2c(-c3nc4ccccc4[nH]3)n[nH]c2c1)N1CCC(CCO)CC1"
OUT: 33

Measured values drawn from ChEMBL document CHEMBL3880421 for this set.
